molecular target: Coagulation factor XI (Homo sapiens, UniProt P03951); experiment: Inhibition of human Factor XIa using Boc-Glu(OBzl)-Ala-Arg-AMC assessed as AMC release preincubated for 15 mins followed by substrate addition and measured after 10 mins by microplate fluorescence reader analysis
Sequence (P03951 19-387 limits assumed): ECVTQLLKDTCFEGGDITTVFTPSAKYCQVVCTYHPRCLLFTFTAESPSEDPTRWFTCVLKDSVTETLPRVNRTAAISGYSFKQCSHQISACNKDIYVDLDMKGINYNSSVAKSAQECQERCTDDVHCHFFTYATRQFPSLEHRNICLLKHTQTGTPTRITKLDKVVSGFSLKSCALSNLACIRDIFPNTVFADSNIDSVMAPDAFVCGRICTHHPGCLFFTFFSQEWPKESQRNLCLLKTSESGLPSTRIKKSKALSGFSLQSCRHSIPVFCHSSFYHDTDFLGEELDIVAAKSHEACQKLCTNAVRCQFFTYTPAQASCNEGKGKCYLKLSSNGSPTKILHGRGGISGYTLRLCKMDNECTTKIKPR
Sequence (P03951 388-625 limits assumed): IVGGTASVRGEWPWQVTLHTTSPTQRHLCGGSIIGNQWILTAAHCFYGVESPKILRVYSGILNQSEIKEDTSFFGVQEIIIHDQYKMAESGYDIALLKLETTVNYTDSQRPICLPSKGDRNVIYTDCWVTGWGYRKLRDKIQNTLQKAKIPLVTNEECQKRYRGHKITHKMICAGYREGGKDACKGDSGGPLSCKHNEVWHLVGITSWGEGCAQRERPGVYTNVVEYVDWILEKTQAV
Labelling field: enter True if recorded IC50 is less than 200 nM. Enter False if it equals or exceeds that cut-off.

CCC(c1cn(-c2ccccc2C(=O)O)nn1)n1cc(OC)c(-c2cc(Cl)ccc2-n2cc(Cl)nn2)cc1=O (stereo unspecified): False
CC[C@@H](c1cn(-c2ccc(C(=O)OC)cc2)nn1)n1cc(OC)c(-c2cc(Cl)ccc2-n2cc(Cl)nn2)cc1=O: True
COc1cn(C(Cc2ccccc2)c2cn(-c3ccccc3)nn2)c(=O)cc1-c1cc(Cl)ccc1-n1cc(C(F)(F)F)nn1 (stereo unspecified): True

Q: Field: below-cutoff. Rule: recorded IC50 strictly less than 200 nM. Subject: COc1cn(Cc2cn(-c3ccc(Cl)nc3C#N)nn2)c(=O)cc1-c1cc(Cl)ccc1-n1cc(Cl)nn1
Ans: False

Q: Also need COc1cn(Cc2cn(-c3cn[nH]c3)nn2)c(=O)cc1-c1cc(Cl)ccc1-n1cc(Cl)nn1 , thanks.
Ans: True

Q: Also need COc1cn([C@H](Cc2ccccc2)c2cn(-c3ccc(C(=O)O)cc3)nn2)c(=O)cc1-c1cc(Cl)ccc1-n1cc(Cl)nn1 , thanks.
Ans: True

Q: Also need COc1cn(Cc2cn(-c3cnn(C)c3)nn2)c(=O)cc1-c1cc(Cl)ccc1-n1cc(Cl)nn1 , thanks.
Ans: False

Q: Also need COc1cn(Cc2cn(-c3cccc(C(=O)O)c3)nn2)c(=O)cc1-c1cc(Cl)ccc1-n1cc(Cl)nn1 , thanks.
Ans: True

Q: Also need COc1cn(Cc2cn(-c3ccc(Cl)nc3C)nn2)c(=O)cc1-c1cc(Cl)ccc1-n1cc(Cl)nn1 , thanks.
Ans: False

Q: Also need COC(=O)c1ccccc1-n1cc(Cn2cc(OC)c(-c3cc(Cl)ccc3-n3cc(Cl)nn3)cc2=O)nn1 , thanks.
Ans: False

Q: Also need COc1cn(C(Cc2ccccc2)c2cn(-c3ccc(C(=O)O)cc3)nn2)c(=O)cc1-c1cc(Cl)ccc1-n1cc(C(F)(F)F)nn1 (stereo unspecified) , thanks.
Ans: True

Q: Also need COc1cn(C(Cc2ccccc2)c2cn(-c3cn[nH]c3)nn2)c(=O)cc1-c1cc(Cl)ccc1-n1cc(C(F)(F)F)nn1 (stereo unspecified) , thanks.
Ans: True

Q: Also need COc1cn(C(Cc2ccccc2)c2cn(-c3ccccc3)nn2)c(=O)cc1-c1cc(Cl)ccc1-n1cc(Cl)nn1 (stereo unspecified) , thanks.
Ans: True

Q: Also need CCC(c1cn(-c2cn[nH]c2)nn1)n1cc(OC)c(-c2cc(Cl)ccc2-n2cc(Cl)nn2)cc1=O (stereo unspecified) , thanks.
Ans: False

Q: Also need CCC(c1cn(-c2ccccc2)nn1)n1cnc(-c2cc(Cl)ccc2-n2cc(Cl)nn2)cc1=O (stereo unspecified) , thanks.
Ans: False

Q: Also need CCC(c1cn(-c2cccc(C(=O)O)c2)nn1)n1cc(OC)c(-c2cc(Cl)ccc2-n2cc(Cl)nn2)cc1=O (stereo unspecified) , thanks.
Ans: False

Q: Also need COc1cn(Cc2cn(-c3ccc(C(=O)O)cc3)nn2)c(=O)cc1-c1cc(Cl)ccc1-n1cc(Cl)nn1 , thanks.
Ans: True

Q: Also need CCC(c1cn(-c2ccc(C(=O)O)cc2)nn1)n1cc(OC)c(-c2cc(Cl)ccc2-n2cc(Cl)nn2)cc1=O (stereo unspecified) , thanks.
Ans: True

Q: Also need CCC(c1cn(-c2cn[nH]c2)nn1)n1cnc(-c2cc(Cl)ccc2-n2cc(Cl)nn2)cc1=O (stereo unspecified) , thanks.
Ans: False

Q: Also need CCC(c1cn(-c2cccc(C(=O)OC)c2)nn1)n1cc(OC)c(-c2cc(Cl)ccc2-n2cc(Cl)nn2)cc1=O (stereo unspecified) , thanks.
Ans: False

Q: Also need CCC(c1cn(-c2cnn(C(F)F)c2)nn1)n1cc(OC)c(-c2cc(Cl)ccc2-n2cc(Cl)nn2)cc1=O (stereo unspecified) , thanks.
Ans: False

Q: Also need COC(=O)c1ccc(-n2cc(Cn3cc(OC)c(-c4cc(Cl)ccc4-n4cc(Cl)nn4)cc3=O)nn2)cc1 , thanks.
Ans: True

Q: Also need CCC(c1cn(-c2ccc(C(=O)OC)cc2)nn1)n1cc(OC)c(-c2cc(Cl)ccc2-n2cc(Cl)nn2)cc1=O (stereo unspecified) , thanks.
Ans: False

###

biological target: Coagulation factor XI (Homo sapiens, UniProt P03951); assay: Inhibition of human Factor XIa using Boc-Glu(OBzl)-Ala-Arg-AMC assessed as AMC release preincubated for 15 mins followed by substrate addition and measured after 10 mins by microplate fluorescence reader analysis
METRIC: IC50 (µM)
Give a bare numeral; the unit µM is implied.

Guide cases for IC50, answers given:
COC(=O)c1ncccc1-n1cc(Cn2cc(OC)c(-c3cc(Cl)ccc3-n3cc(Cl)nn3)cc2=O)nn1: 2
COc1cn([C@@H](Cc2ccccc2)c2cn(-c3ccc(C(=O)O)cc3)nn2)c(=O)cc1-c1cc(Cl)ccc1-n1cc(Cl)nn1: 0.00152

Q: Can you look up the measured IC50 of CC[C@H](c1cn(-c2ccc(C(=O)OC)cc2)nn1)n1cc(OC)c(-c2cc(Cl)ccc2-n2cc(Cl)nn2)cc1=O for me?
Ans: 1.1

Q: Also need COc1cn(Cc2cn(-c3cccnc3C(=O)O)nn2)c(=O)cc1-c1cc(Cl)ccc1-n1cc(Cl)nn1 , thanks.
Ans: 0.379

###

target: Plasma kallikrein (Homo sapiens, UniProt P03952); assay: Inhibition of human PKa using H-Pro-Phe-Arg-AMC as substrate incubated for 15 mins by fluorescence reader analysis
Sequence (P03952 20-390 limits assumed): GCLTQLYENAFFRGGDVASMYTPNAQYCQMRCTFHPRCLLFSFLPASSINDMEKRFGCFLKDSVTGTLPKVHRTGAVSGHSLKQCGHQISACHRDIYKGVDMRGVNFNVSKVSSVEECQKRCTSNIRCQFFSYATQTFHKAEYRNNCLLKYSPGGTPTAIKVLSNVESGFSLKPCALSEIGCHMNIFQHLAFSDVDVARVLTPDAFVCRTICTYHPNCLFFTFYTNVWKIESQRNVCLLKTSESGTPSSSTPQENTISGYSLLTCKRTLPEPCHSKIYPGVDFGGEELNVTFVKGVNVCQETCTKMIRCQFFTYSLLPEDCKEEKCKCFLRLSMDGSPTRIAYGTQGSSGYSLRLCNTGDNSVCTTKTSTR
Sequence (P03952 391-638 limits assumed): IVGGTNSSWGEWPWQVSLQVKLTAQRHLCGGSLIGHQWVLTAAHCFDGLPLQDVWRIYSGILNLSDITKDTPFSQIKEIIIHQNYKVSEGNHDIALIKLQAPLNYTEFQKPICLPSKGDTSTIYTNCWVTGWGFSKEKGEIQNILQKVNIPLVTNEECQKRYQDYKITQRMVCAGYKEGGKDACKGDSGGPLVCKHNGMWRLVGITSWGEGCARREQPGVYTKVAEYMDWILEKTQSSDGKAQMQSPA
METRIC: pIC50
Scale: pIC50 equals -log10([C]), with [C] in mol/L.

Guide cases for pIC50, answers given:
CCC(c1cn(-c2cnn(C)c2)nn1)n1cnc(-c2cc(Cl)ccc2-n2cc(Cl)nn2)cc1=O (configuration not stated): 4.06
COC(=O)c1ccc(-n2cc(Cn3cc(OC)c(-c4cc(Cl)ccc4-n4cc(Cl)nn4)cc3=O)nn2)cc1: 5.71
CCC(c1cn(-c2ccccc2C(=O)O)nn1)n1cc(OC)c(-c2cc(Cl)ccc2-n2cc(Cl)nn2)cc1=O (configuration not stated): 5.01

Q: Can you look up the measured pIC50 of CCC(c1cn(-c2cn[nH]c2)nn1)n1cnc(-c2cc(Cl)ccc2-n2cc(Cl)nn2)cc1=O (configuration not stated) for me?
Ans: 4.63

Q: Also need COC(=O)c1ccccc1-n1cc(Cn2cc(OC)c(-c3cc(Cl)ccc3-n3cc(Cl)nn3)cc2=O)nn1 , thanks.
Ans: 4.94

Q: Also need CC[C@H](c1cn(-c2ccc(C(=O)OC)cc2)nn1)n1cc(OC)c(-c2cc(Cl)ccc2-n2cc(Cl)nn2)cc1=O , thanks.
Ans: 5.11

Q: Also need CCC(c1cn(-c2ccc(C(=O)OC)cc2)nn1)n1cc(OC)c(-c2cc(Cl)ccc2-n2cc(Cl)nn2)cc1=O (configuration not stated) , thanks.
Ans: 5.83

Q: Also need COC(=O)c1cccc(-n2cc(Cn3cc(OC)c(-c4cc(Cl)ccc4-n4cc(Cl)nn4)cc3=O)nn2)c1 , thanks.
Ans: 5.97

Q: Also need COC(=O)c1ccc(-n2cc(C(Cc3ccccc3)n3cc(OC)c(-c4cc(Cl)ccc4-n4cc(C(F)(F)F)nn4)cc3=O)nn2)cc1 (configuration not stated) , thanks.
Ans: 6.19

Q: Also need COc1cn(Cc2cn(-c3cn[nH]c3)nn2)c(=O)cc1-c1cc(Cl)ccc1-n1cc(Cl)nn1 , thanks.
Ans: 5.69

Q: Also need CCC(c1cn(-c2ccccc2)nn1)n1cnc(-c2cc(Cl)ccc2-n2cc(Cl)nn2)cc1=O (configuration not stated) , thanks.
Ans: 4.33

Q: Also need COc1cn(C(Cc2ccccc2)c2cn(-c3ccc(C(=O)O)cc3)nn2)c(=O)cc1-c1cc(Cl)ccc1-n1cc(Cl)nn1 (configuration not stated) , thanks.
Ans: 6.85

Q: Also need COc1cn(Cc2cn(-c3cccnc3C(=O)O)nn2)c(=O)cc1-c1cc(Cl)ccc1-n1cc(Cl)nn1 , thanks.
Ans: 5.17

Q: Also need COC(=O)c1ccc(-n2cc(C(Cc3ccccc3)n3cc(OC)c(-c4cc(Cl)ccc4-n4cc(Cl)nn4)cc3=O)nn2)cc1 (configuration not stated) , thanks.
Ans: 6.28

Q: Also need CCC(c1cn(-c2ccccc2)nn1)n1cc(OC)c(-c2cc(Cl)ccc2-n2cc(Cl)nn2)cc1=O (configuration not stated) , thanks.
Ans: 5.59

Q: Also need CCC(c1cn(-c2cnn(C)c2)nn1)n1cc(OC)c(-c2cc(Cl)ccc2-n2cc(Cl)nn2)cc1=O (configuration not stated) , thanks.
Ans: 5.19

Q: Also need COc1cn(Cc2cn(-c3ccc(Cl)nc3C)nn2)c(=O)cc1-c1cc(Cl)ccc1-n1cc(Cl)nn1 , thanks.
Ans: 4.95
